# conditionDescription: 333.15 K; 3000 kPa; Liquid; Vibrating tube method
Overview of recorded mass density for various compounds

{"compound": "CCC[N+]1(C)CCCCC1.O=S(=O)([N-]S(=O)(=O)C(F)(F)F)C(F)(F)F", "unitSpec": "kg/m3", "mass density": 1379.3}
{"compound": "CCC[N+]1(C)CCCC1.O=S(=O)([N-]S(=O)(=O)C(F)(F)F)C(F)(F)F", "unitSpec": "kg/m3", "mass density": 1401.4}
{"compound": "CCCC[N+]1(C)CCCC1.O=S(=O)([N-]S(=O)(=O)C(F)(F)F)C(F)(F)F", "unitSpec": "kg/m3", "mass density": 1372.5}
{"compound": "CCn1cc[n+](C)c1.O=S(=O)([O-])C(F)(F)F [1-ethyl-3-methylimidazolium trifluoromethanesulfonate]", "unitSpec": "kg/m3", "mass density": 1344.6}
{"compound": "CCC[n+]1cccc(C)c1.O=S(=O)([N-]S(=O)(=O)C(F)(F)F)C(F)(F)F", "unitSpec": "kg/m3", "mass density": 1416.1}

----------
# conditionDescription: 393.15 K; 10000 kPa; Liquid; Vibrating tube method

{"molecule": "CCCC[N+]1(C)CCCC1.O=S(=O)([N-]S(=O)(=O)C(F)(F)F)C(F)(F)F", "unitSpec": "kg/m3", "mass density": 1324.8}
{"molecule": "CCn1cc[n+](C)c1.O=S(=O)([O-])C(F)(F)F [1-ethyl-3-methylimidazolium trifluoromethanesulfonate]", "unitSpec": "kg/m3", "mass density": 1298.1}
{"molecule": "CCC[N+]1(C)CCCC1.O=S(=O)([N-]S(=O)(=O)C(F)(F)F)C(F)(F)F", "unitSpec": "kg/m3", "mass density": 1352.5}
{"molecule": "CCC[N+]1(C)CCCCC1.O=S(=O)([N-]S(=O)(=O)C(F)(F)F)C(F)(F)F", "unitSpec": "kg/m3", "mass density": 1331.8}
{"molecule": "CCC[n+]1cccc(C)c1.O=S(=O)([N-]S(=O)(=O)C(F)(F)F)C(F)(F)F", "unitSpec": "kg/m3", "mass density": 1365}

----------
Overview of recorded mass density for various molecules
# conditionDescription: 303.15 K; 3000 kPa; Liquid; Vibrating tube method

{"molecule": "CCC[n+]1cccc(C)c1.O=S(=O)([N-]S(=O)(=O)C(F)(F)F)C(F)(F)F", "mass density / kg/m3": 1446.8}
{"molecule": "CCC[N+]1(C)CCCC1.O=S(=O)([N-]S(=O)(=O)C(F)(F)F)C(F)(F)F", "mass density / kg/m3": 1430.8}
{"molecule": "CCCC[N+]1(C)CCCC1.O=S(=O)([N-]S(=O)(=O)C(F)(F)F)C(F)(F)F", "mass density / kg/m3": 1401.4}
{"molecule": "CCn1cc[n+](C)c1.O=S(=O)([O-])C(F)(F)F [1-ethyl-3-methylimidazolium trifluoromethanesulfonate]", "mass density / kg/m3": 1372.1}
{"molecule": "CCC[N+]1(C)CCCCC1.O=S(=O)([N-]S(=O)(=O)C(F)(F)F)C(F)(F)F", "mass density / kg/m3": 1409.3}

----------
Overview of recorded mass density for various compounds
# conditionDescription: 353.15 K; 5000 kPa; Liquid; Vibrating tube method

{"compound": "CCC[n+]1cccc(C)c1.O=S(=O)([N-]S(=O)(=O)C(F)(F)F)C(F)(F)F", "mass density / kg/m3": 1398}
{"compound": "CCC[N+]1(C)CCCCC1.O=S(=O)([N-]S(=O)(=O)C(F)(F)F)C(F)(F)F", "mass density / kg/m3": 1362.8}
{"compound": "CCn1cc[n+](C)c1.O=S(=O)([O-])C(F)(F)F [1-ethyl-3-methylimidazolium trifluoromethanesulfonate]", "mass density / kg/m3": 1328.6}
{"compound": "CCC[N+]1(C)CCCC1.O=S(=O)([N-]S(=O)(=O)C(F)(F)F)C(F)(F)F", "mass density / kg/m3": 1384.3}
{"compound": "CCCC[N+]1(C)CCCC1.O=S(=O)([N-]S(=O)(=O)C(F)(F)F)C(F)(F)F", "mass density / kg/m3": 1355.8}

----------
# conditionDescription: 353.15 K; 20000 kPa; Liquid; Vibrating tube method

{"compound": "CCCC[N+]1(C)CCCC1.O=S(=O)([N-]S(=O)(=O)C(F)(F)F)C(F)(F)F", "unitSpec": "kg/m3", "mass density": 1368.1}
{"compound": "CCn1cc[n+](C)c1.O=S(=O)([O-])C(F)(F)F [1-ethyl-3-methylimidazolium trifluoromethanesulfonate]", "unitSpec": "kg/m3", "mass density": 1338.5}
{"compound": "CCC[N+]1(C)CCCCC1.O=S(=O)([N-]S(=O)(=O)C(F)(F)F)C(F)(F)F", "unitSpec": "kg/m3", "mass density": 1374.7}
{"compound": "CCC[n+]1cccc(C)c1.O=S(=O)([N-]S(=O)(=O)C(F)(F)F)C(F)(F)F", "unitSpec": "kg/m3", "mass density": 1411}
{"compound": "CCC[N+]1(C)CCCC1.O=S(=O)([N-]S(=O)(=O)C(F)(F)F)C(F)(F)F", "unitSpec": "kg/m3", "mass density": 1396.6}

----------
Overview of recorded mass density for various molecules
# conditionDescription: 313.15 K; 30000 kPa; Liquid; Vibrating tube method
measurementName: mass density (kg/m3)

{"molecule": "CCC[n+]1cccc(C)c1.O=S(=O)([N-]S(=O)(=O)C(F)(F)F)C(F)(F)F", "numericValue": 1456.7}
{"molecule": "CCn1cc[n+](C)c1.O=S(=O)([O-])C(F)(F)F [1-ethyl-3-methylimidazolium trifluoromethanesulfonate]", "numericValue": 1378.8}
{"molecule": "CCC[N+]1(C)CCCCC1.O=S(=O)([N-]S(=O)(=O)C(F)(F)F)C(F)(F)F", "numericValue": 1418.4}
{"molecule": "CCC[N+]1(C)CCCC1.O=S(=O)([N-]S(=O)(=O)C(F)(F)F)C(F)(F)F", "numericValue": 1440.3}
{"molecule": "CCCC[N+]1(C)CCCC1.O=S(=O)([N-]S(=O)(=O)C(F)(F)F)C(F)(F)F", "numericValue": 1411.1}

----------
Overview of recorded mass density for various compounds
# conditionDescription: 293.15 K; 3000 kPa; Liquid; Vibrating tube method
measurementName: mass density (kg/m3)

{"compound": "CCC[N+]1(C)CCCCC1.O=S(=O)([N-]S(=O)(=O)C(F)(F)F)C(F)(F)F", "numericValue": 1419}
{"compound": "CCCC[N+]1(C)CCCC1.O=S(=O)([N-]S(=O)(=O)C(F)(F)F)C(F)(F)F", "numericValue": 1411.2}
{"compound": "CCn1cc[n+](C)c1.O=S(=O)([O-])C(F)(F)F [1-ethyl-3-methylimidazolium trifluoromethanesulfonate]", "numericValue": 1381.1}
{"compound": "CCC[N+]1(C)CCCC1.O=S(=O)([N-]S(=O)(=O)C(F)(F)F)C(F)(F)F", "numericValue": 1440.7}
{"compound": "CCC[n+]1cccc(C)c1.O=S(=O)([N-]S(=O)(=O)C(F)(F)F)C(F)(F)F", "numericValue": 1457.1}

----------
# conditionDescription: 323.15 K; 100 kPa; Liquid; Vibrating tube method
Overview of recorded mass density for various molecules

{"molecule": "CCCC[N+]1(C)CCCC1.O=S(=O)([N-]S(=O)(=O)C(F)(F)F)C(F)(F)F", "unitSpec": "kg/m3", "mass density": 1379.8}
{"molecule": "CCC[N+]1(C)CCCC1.O=S(=O)([N-]S(=O)(=O)C(F)(F)F)C(F)(F)F", "unitSpec": "kg/m3", "mass density": 1408.7}
{"molecule": "CCC[N+]1(C)CCCCC1.O=S(=O)([N-]S(=O)(=O)C(F)(F)F)C(F)(F)F", "unitSpec": "kg/m3", "mass density": 1387.6}
{"molecule": "CCn1cc[n+](C)c1.O=S(=O)([O-])C(F)(F)F [1-ethyl-3-methylimidazolium trifluoromethanesulfonate]", "unitSpec": "kg/m3", "mass density": 1352}
{"molecule": "CCC[n+]1cccc(C)c1.O=S(=O)([N-]S(=O)(=O)C(F)(F)F)C(F)(F)F", "unitSpec": "kg/m3", "mass density": 1423.7}

----------
# conditionDescription: 393.15 K; 2000 kPa; Liquid; Vibrating tube method

{"compound": "CCn1cc[n+](C)c1.O=S(=O)([O-])C(F)(F)F [1-ethyl-3-methylimidazolium trifluoromethanesulfonate]", "mass density / kg/m3": 1292.4}
{"compound": "CCC[N+]1(C)CCCCC1.O=S(=O)([N-]S(=O)(=O)C(F)(F)F)C(F)(F)F", "mass density / kg/m3": 1324.3}
{"compound": "CCCC[N+]1(C)CCCC1.O=S(=O)([N-]S(=O)(=O)C(F)(F)F)C(F)(F)F", "mass density / kg/m3": 1317.1}
{"compound": "CCC[N+]1(C)CCCC1.O=S(=O)([N-]S(=O)(=O)C(F)(F)F)C(F)(F)F", "mass density / kg/m3": 1344.9}
{"compound": "CCC[n+]1cccc(C)c1.O=S(=O)([N-]S(=O)(=O)C(F)(F)F)C(F)(F)F", "mass density / kg/m3": 1356.9}
